This collection of values is drawn from paper PMC8222333.

Biological target: dAsCas12a E174R (Acidaminococcus sp., UniProt U2UMQ6 1-1307, E174R;D908A;E993A;D1235A)
Test: Spec-seq (native PAGE EMSA with sequencing of bound and unbound); 25 mM Tris-HCl pH 7.4, 150 mM KCl, 5 mM MgCl2, 10% glycerol, 1 mM DTT, 40 ng/uL salmon sperm DNA; 400 nM Cas12a, 480 nM crRNA, 50 nM library, 37 C 1 h; native PAGE at room temperature; high values mean tight binding;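 also: relative affinity from the bound to unbound sequence frequency ratio in Spec-seq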
Conditions: protein: recombinant
Examples of binders with documented binding signal follow.

binder | binding signal [lnKA]
TCGA (dsDNA) DNA 1: GCTATCTAGTGCTCAGTACGCACTGTCGAAGGAAACTTCTGGCAGGACCAGGTCATGAGATCGGAAGAGCACACGTCTGAACTCCAGTCA DNA 2: TGACTGGAGTTCAGACGTGTGCTCTTCCGATCTCATGACCTGGTCCTGCCAGAAGTTTCCTTCGACAGTGCGTACTGAGCACTAGATAGC RNA: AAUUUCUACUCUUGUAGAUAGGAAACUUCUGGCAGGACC | -8.54
AATA (dsDNA) DNA 1: GCTATCTAGTGCTCAGTACGCACTGAATAAGGAAACTTCTGGCAGGACCAGGTCATGAGATCGGAAGAGCACACGTCTGAACTCCAGTCA DNA 2: TGACTGGAGTTCAGACGTGTGCTCTTCCGATCTCATGACCTGGTCCTGCCAGAAGTTTCCTTATTCAGTGCGTACTGAGCACTAGATAGC RNA: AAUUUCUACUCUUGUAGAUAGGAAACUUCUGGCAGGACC | -7.04
